test system: tumor endothelial cells (LL/2 lung cancer tumor); assay: Lung LL2 ex vivo model of tumor angiogenesis; assay type: cell-based, mouse; details: Mus musculus, Endothelial cell, 48 h, read-out: Cell death
Item-by-item account of cytotoxicity at 40 µM
measurement_label: cytotoxicity at 40 µM

[[record]]
compound = "CCCCOc1ccc(S(=O)(=O)c2cnc3ccc(C(=O)OCC)cc3c2N2CCCN(CCN3CCCCC3)CC2)cc1 [compound 181]"
test_target = "tumor endothelial cells (LL/2 lung cancer tumor)"
measurement_label = "cytotoxicity at 40 µM"
reported_value = "100%"

[[record]]
compound = "CCc1ccc(S(=O)(=O)c2cnc3ccc(OC(F)(F)F)cc3c2-n2cncn2)cc1 [compound 51]"
test_target = "tumor endothelial cells (LL/2 lung cancer tumor)"
measurement_label = "cytotoxicity at 40 µM"
reported_value = "100%"

[[record]]
compound = "CCCCCCCOc1ccc(S(=O)(=O)c2cnc3ccc(SC)cc3c2N2CCC(N3CCCCC3)CC2)cc1 [compound 219]"
test_target = "tumor endothelial cells (LL/2 lung cancer tumor)"
measurement_label = "cytotoxicity at 40 µM"
reported_value = "60%"

[[record]]
compound = "CCOC(=O)c1ccc2ncc(S(=O)(=O)c3ccc(CC)cc3)c(N3CCCN(C)CC3)c2c1 [compound 63]"
test_target = "tumor endothelial cells (LL/2 lung cancer tumor)"
measurement_label = "cytotoxicity at 40 µM"
reported_value = "50%"

[[record]]
compound = "COc1ccc(S(=O)(=O)c2cnc3cc(OC)c(OC)cc3c2N2CCCN(C3CCSCC3)CC2)cc1 [compound 329]"
test_target = "tumor endothelial cells (LL/2 lung cancer tumor)"
measurement_label = "cytotoxicity at 40 µM"
reported_value = "40%"

[[record]]
compound = "CCCCOc1ccc(S(=O)(=O)c2cnc3ccc(SC)cc3c2N2CCC(N3CCC(N4CCCCC4)CC3)CC2)cc1 [compound 231]"
test_target = "tumor endothelial cells (LL/2 lung cancer tumor)"
measurement_label = "cytotoxicity at 40 µM"
reported_value = "100%"

[[record]]
compound = "CCCCOc1ccc(S(=O)(=O)c2cnc3ccc(C(=O)OCC)cc3c2N2CCC(N3CCC(O)CC3)CC2)cc1 [compound 161]"
test_target = "tumor endothelial cells (LL/2 lung cancer tumor)"
measurement_label = "cytotoxicity at 40 µM"
reported_value = "90%"

